Values from ChEMBL document CHEMBL1201862

Test system: SF-539
assay.text: NCI tumour cell line growth inhibition, 48 h
Activity calls are given as the source filed them. No stated cut-off is given here; in the data, active = GI50 up to about 1.1 µM and inactive = higher.
// one of T (active), F (inactive), no free text

Known results for compounds:
>>> class_label("Nc1nc(O)c2[nH]cnc2[n+]1[O-]")
"F"
>>> class_label("COC(=O)[C@]1(c2cc3ccccc3n2S(=O)(=O)c2ccccc2)CC2CN(C(C)=O)C1CC2=O (some centres undefined)")
"F"
>>> class_label("O=[N+]([O-])c1ccc(/C=N/C23CC4CC(CC(C4)C2)C3)cc1")
"F"
>>> class_label("C[C@@H]1C[C@@H]([C@H](O)CC2CC(=O)NC(=O)C2)C(=O)[C@@H](C)C1 [CYCLOHEXIMIDE]")
"T"
>>> class_label("S=C(NN=C1NCCCN1)Nc1ccccc1")
"F"

[Q] Dear colleague, could you share the recorded outcome for CC(C)=NOC(=O)OC[C@H]1O[C@@H](n2cnc3c(N)ncnc32)C(O)C1O (some centres undefined) when you have a moment?
[A] F

[Q] Dear colleague, could you share the recorded outcome for Oc1cc(Br)cc2cccnc12 when you have a moment?
[A] F

[Q] Dear colleague, could you share the recorded outcome for CC1(C)CCCCCCC2OC2CCCCCC(C)(C)C1=O (centres undefined) when you have a moment?
[A] F

[Q] Dear colleague, could you share the recorded outcome for CCOC(=O)CC(C)C1(C(=O)OCC)CCCCC1=O (centres undefined) when you have a moment?
[A] F

====

Tested on: SNB-75
assay.text: NCI tumour cell line growth inhibition, 48 h
The source made the active and inactive calls. No stated cut-off is given here; in the data, active = GI50 up to about 1.1 µM and inactive = higher.
parameter.measured: GI50

// worked examples, GI50 included
>>> result("O=C1C(Cl)C2(CC(/C=C/c3cccs3)=NN2c2cccc(S(=O)(=O)O)c2)N1c1nc2ccccc2s1 (centres undefined)")
"49.9 µM (inactive)"
>>> result("O=c1c2ccccc2c2ccccc2c(=O)n1Cc1ccc2c(c1)OCO2")
"42.7 µM (inactive)"
>>> result("COc1ccc2nc(N/N=C/c3ccc(C)s3)cc(C)c2c1")
"24.3 µM (inactive)"
>>> result("CCCCCCc1cc2cc(-c3csc(CC#N)n3)c(=O)oc2cc1O")
"32.1 µM (inactive)"
>>> result("O=c1[nH]/c(=C/c2ccc(OCc3ccccc3)cn2)c(=O)[nH]/c1=C/c1cccnc1")
"0.452 µM (active)"
>>> result("CC1CC(c2ccccc2)=Nc2ccccc2S1 (centres undefined)")
"> 100 µM (inactive)"

[Q] Quote GI50 reported for CC[C@@]1(O)C(=O)OCc2c1cc1n(c2=O)Cc2c-1nc1ccccc1c2/C=N\NC(=O)C(C)N (some centres undefined) please.
[A] < 0.0298 µM (active)

[Q] Quote GI50 reported for O=[N+]([O-])C(=C1Nc2ccccc2N1)C(Cl)=C(Cl)Cl please.
[A] < 0.01 µM (active)

[Q] Quote GI50 reported for COc1ccc2c(c1)C(=O)C1CC(=O)CCC21 (centres undefined) please.
[A] > 100 µM (inactive)

====

Tested on: SK-OV-3
assay.text: NCI tumour cell line growth inhibition, 48 h
Activity calls are given as the source filed them. No stated cut-off is given here; in the data, active = GI50 up to about 1.1 µM and inactive = higher.
GI50 overview

// worked examples, GI50 included
>>> result("O=c1c2cccnc2[s+]([O-])n1Cc1ccccc1 (centres undefined)")
"> 100 µM (inactive)"
>>> result("CN1C(=O)N(c2nc3ccccc3[nH]2)C(C)(C)C1=O")
"> 100 µM (inactive)"
>>> result("Oc1ccccc1C1=NOC(c2ccc(C(F)(F)F)cc2)C1 (centres undefined)")
"> 50 µM (inactive)"
>>> result("CCCCNC(=S)Nc1nc(C(=O)NNC(=S)NCc2ccccc2)cs1")
"88.5 µM (inactive)"
>>> result("Cc1ccc(S(=O)(=O)N2CCCC2C(=O)O[C@H]2CC[C@H]3CC=C[C@H]32)cc1 (some centres undefined)")
"33.7 µM (inactive)"
>>> result("CCC1c2[nH]c3ccccc3c2C[C@H]2C(=O)N3CCC[C@H]3C(=O)N12 (some centres undefined)")
"> 100 µM (inactive)"
>>> result("CCN(CC)CC(=O)O[C@]1(CC)C(=O)OCc2c1cc1n(c2=O)Cc2cc3ccccc3nc2-1")
"0.0826 µM (active)"
>>> result("O=[N+]([O-])c1ccc(/C=N/C23CC4CC(CC(C4)C2)C3)cc1")
"> 100 µM (inactive)"

Turning now to a further compound:
[Q] Quote GI50 reported for CC(=O)/C(=N\O)C(=O)Nc1ccc(Cl)cc1Cl please.
[A] > 100 µM (inactive)

====

GI50 overview
Test system: ACHN
assay.text: NCI tumour cell line growth inhibition, 48 h
Active and inactive are the calls of the source. No stated cut-off is given here; in the data, active = GI50 up to about 1.1 µM and inactive = higher.

>>> result("ON(Cc1ccccc1)C(=S)c1ccccc1")
"4.21 µM (inactive)"

[Q] Specify the recorded GI50 for CC1(Br)S(=O)(=O)OCCOS1(=O)=O , system: ACHN.
[A] > 100 µM (inactive)

[Q] Specify the recorded GI50 for CCOC(=O)Cc1cc(OC)c(OC)cc1/C(Cl)=C(\CO)c1ccc(OC)c(OC)c1 , system: ACHN.
[A] 81.1 µM (inactive)

[Q] Specify the recorded GI50 for O=C1C(Cl)C2(CC(/C=C/c3cccs3)=NN2c2cccc(S(=O)(=O)O)c2)N1c1nc2ccccc2s1 (stereo not given) , system: ACHN.
[A] 58.3 µM (inactive)

[Q] Specify the recorded GI50 for Cc1cc2c(cc1C)[n+]([O-])c(C(=O)C/C(=N/NC(=S)NN)C(=O)Nc1cccc(C(F)(F)F)c1)c[n+]2[O-] , system: ACHN.
[A] > 100 µM (inactive)

====

System: HCC 2998
assay.text: NCI tumour cell line growth inhibition, 48 h
Active and inactive are the calls of the source. Cut-off read from the data, not from the text of the source: active = GI50 up to about 1.1 µM and inactive = higher.
parameter.measured: GI50

>>> result("COc1ccccc1NC1=NCC(C)S1 (stereo not drawn)")
"> 100 µM (inactive)"
>>> result("COc1cc(C(=O)Nc2nnc(S(N)(=O)=O)s2)cc(OC)c1OC")
"> 100 µM (inactive)"
>>> result("O=C(NC(C(F)(F)F)(C(F)(F)F)P(=O)(c1ccccc1)c1ccccc1)C(C(F)(F)F)C(F)(F)F")
"> 100 µM (inactive)"
>>> result("O=C(/C(=C/c1ccc(Cl)cc1)c1ccccc1)c1ccccc1")
"16.9 µM (inactive)"

[Q] Quote GI50 reported for S=C(NN=C1NCCCN1)Nc1ccccc1 please.
[A] > 100 µM (inactive)

[Q] Quote GI50 reported for CCOC(=O)C1(C#N)C(c2ccccc2)CC(O)(c2ccc(OC)cc2)C(C(=O)c2ccc(OC)cc2)C1c1ccccc1 (stereo not drawn) please.
[A] > 100 µM (inactive)

[Q] Quote GI50 reported for Brc1cc(CCOC2CCCCO2)c(-c2sccc2CCOC2CCCCO2)s1 (stereo not drawn) please.
[A] 31.9 µM (inactive)

[Q] Quote GI50 reported for CSc1cc(Cl)c(C)cc1S(=O)(=O)NC(=O)NNc1ccccn1 please.
[A] > 100 µM (inactive)

[Q] Quote GI50 reported for Nc1ccc(S(=O)(=O)Nc2cnc3ccccc3n2)cc1 please.
[A] > 100 µM (inactive)

[Q] Quote GI50 reported for CCCCCCc1cc2cc(-c3csc(CC#N)n3)c(=O)oc2cc1O please.
[A] > 100 µM (inactive)

[Q] Quote GI50 reported for COc1ccc(/C=C/c2nnc(S)[nH]2)cc1OC please.
[A] > 100 µM (inactive)

[Q] Quote GI50 reported for CC1(c2cccc(N)c2)C2C(=O)NC(=O)C1C(=O)NC2=O (stereo not drawn) please.
[A] 52.2 µM (inactive)

[Q] Quote GI50 reported for CCOc1ccc(C2Oc3c(cccc3OC)C=C2[N+](=O)[O-])cc1OCC (stereo not drawn) please.
[A] 20.7 µM (inactive)

[Q] Quote GI50 reported for CCCC[Si](CCCC)(CCCC)O[C@@H](/C=C/C(=O)OCC)[C@H](Cc1ccccc1)O[Si](CCCC)(CCCC)CCCC please.
[A] > 100 µM (inactive)

[Q] Quote GI50 reported for CCn1c(O)c(C(=O)NC(C)c2ccc([N+](=O)[O-])cc2)c(=O)n(CC)c1=S (stereo not drawn) please.
[A] 3.29 µM (inactive)

[Q] Quote GI50 reported for CC1(Br)Cc2ccccc2C1=O (stereo not drawn) please.
[A] > 100 µM (inactive)

[Q] Quote GI50 reported for COC1=CC(=O)[C@@]2(C)C(C)[C@H](c3ccccc3)[C@H]2C1=O (stereo partly drawn) please.
[A] > 100 µM (inactive)

====

GI50 overview
Tested on: SN12C
assay.text: NCI tumour cell line growth inhibition, 48 h
Active and inactive are the calls of the source. Rule as the data show it: active = GI50 up to about 1.1 µM and inactive = higher.

// worked examples, GI50 included
>>> result("C[C@H](NS(=O)(=O)c1ccc(NC(=O)c2ccccc2)cc1)C(=O)O")
"> 100 µM (inactive)"
>>> result("CC(C)CCNc1ncnc2[nH]ncc12")
"> 100 µM (inactive)"
>>> result("CCCC[Si](CCCC)(CCCC)O[C@@H](/C=C/C(=O)OCC)[C@H](Cc1ccccc1)O[Si](CCCC)(CCCC)CCCC")
"> 100 µM (inactive)"
>>> result("COc1ccc(NC(=O)C(=O)NNC(=O)c2sc(NNC(C)=O)nc2C)c([N+](=O)[O-])c1")
"> 100 µM (inactive)"
>>> result("O=C(CBr)NCCc1c[nH]c2ccccc12")
"1.45 µM (inactive)"

Turning now to a further molecule:
[Q] Quote GI50 reported for CCOC(=O)C(C)c1nc2c(Cl)c3ncccc3cc2[nH]c1=O (stereo unspecified) please.
[A] > 100 µM (inactive)
